assay: self-splicing fitness, log relative to wild type (ln ratio); higher = more splicing; Tetrahymena group I intron in knt gene, E. coli kanamycin selection, DiMSum; sequences stand for … in CUCUCU…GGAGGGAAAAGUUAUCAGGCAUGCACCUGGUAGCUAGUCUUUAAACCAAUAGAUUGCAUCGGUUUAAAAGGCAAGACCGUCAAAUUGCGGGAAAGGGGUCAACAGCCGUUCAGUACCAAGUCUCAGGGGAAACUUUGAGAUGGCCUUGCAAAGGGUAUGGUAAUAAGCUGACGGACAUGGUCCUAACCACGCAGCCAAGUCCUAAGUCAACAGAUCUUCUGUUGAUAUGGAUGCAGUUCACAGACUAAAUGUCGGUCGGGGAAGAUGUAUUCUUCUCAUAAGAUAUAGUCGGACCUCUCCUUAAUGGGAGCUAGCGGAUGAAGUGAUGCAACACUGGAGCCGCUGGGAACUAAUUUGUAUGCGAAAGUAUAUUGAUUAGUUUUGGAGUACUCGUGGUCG; conditions: 30 °C;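 also: selection with 25 µg/mL kanamycin versus none on LB agar overnight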
Each entry below carries its recorded self-splicing fitness (ln).
REPORTED_PROPERTY: self-splicing fitness (ln)

ORDERED_RESIDUES	REPORTED_PROPERTY	ENDPOINT_VALUE
GGGCAGCAAUAUUACGGCUA	self-splicing fitness (ln)	-0.49
ACUGAGCAAUAUUACGAGGU	self-splicing fitness (ln)	-2.91
CGGUAGCAAUAUUACGGUAA	self-splicing fitness (ln)	-2.99
ACUCAGCAAUAUUACGCUGC	self-splicing fitness (ln)	-3.36
AUCAAGCAAUAUUACGACGU	self-splicing fitness (ln)	0.145
AUGAAGCAAUAUUACGACGC	self-splicing fitness (ln)	0.112
UUACAGCAAUAUUACGGGUC	self-splicing fitness (ln)	-3.67
UGCUAGCAAUAUUACGCACA	self-splicing fitness (ln)	-1.12
